- Tested on: circBRIP1 in HCT116 cells
- experiment: DHX9 circBRIP1 cellular target engagement SYBR Green assay (qPCR)
- Assay type: cell-based
- test_conditions: Homo sapiens, HCT-116, circBRIP1, HCT116 cells; SyBr assay (marked ^+); read-out: DHX9 Cellular Target Engagement EC50
measured_property: EC50 (µM)

Cc1cc(C)c2cc(C(=O)Nc3cc(Cl)cc(NS(C)(=O)=O)c3)cn2c1 : 2.67
CSc1ccc(-n2cc(C(=O)Nc3cc(Cl)cc(NS(C)(=O)=O)c3)cn2)nc1 : 1.39

A. Cc1cc(C(=O)Nc2cc(Cl)cc(NS(C)(=O)=O)c2)cn1-c1ccc(N2CCOC(C)(C)C2)cn1
B. CS(=O)(=O)Nc1cc(Cl)cc(NC(=O)c2cc3cccnn3c2)c1
C. CS(=O)(=O)Nc1cc(Cl)cc(NC(=O)c2cnn(-c3ncccc3OCc3cccc(O)c3)c2)c1
D. Cc1cc(C(=O)Nc2cc(Cl)cc(NS(C)(=O)=O)c2)cn1-c1ccc(N2CCCC2)cn1
E. Cc1cccnc1-c1cc(C(=O)Nc2cc(F)cc(NS(C)(=O)=O)c2)sc1C
Output the entries ranked by EC50 from maximum down to minimum. Write the labels, ordered according to the request.
B, C, E, D, A
(B: 2.3 µM, C: 0.997 µM, E: 0.421 µM, D: 0.101 µM, A: 0.0311 µM)

====

- System: circBRIP1 in HCT116 cells
- experiment: DHX9 circBRIP1 cellular target engagement SYBR Green assay (qPCR)
- Format: cell-based
- test_conditions: Homo sapiens, HCT-116, circBRIP1, HCT116 cells; SyBr assay (marked ^+); read-out: DHX9 Cellular Target Engagement EC50
pEC50: −log10 of the molar value.
measured_property: pEC50

Example results:
CS(=O)(=O)Nc1cc(Cl)cc(NC(=O)c2cc3cnccc3s2)c1 : 5.11
Cc1cccnc1-c1csc(C(=O)Nc2cc(F)cc(NS(C)(=O)=O)c2)c1 : 6.60
CN1CC2(CC(n3cc(C(=O)Nc4cc(Cl)cc(NS(C)(=O)=O)c4)cn3)C2)C1 : 5.40
Cn1cc(C(=O)Nc2cc(Cl)cc(NS(C)(=O)=O)c2)cc1-c1ncc(F)cc1OCc1cnco1 : 6.74
CS(=O)(=O)Nc1cc(Cl)cc(NC(=O)c2cc(Br)cs2)c1 : 5.43

P. CS(=O)(=O)Nc1cc(Cl)cc(NC(=O)c2cnn(C3CC4CCC(C3)O4)c2)c1 (centres unmarked)
Q. CN(c1ncccn1)c1cccnc1-c1csc(C(=O)Nc2cc(Cl)cc(NS(C)(=O)=O)c2)c1
Between item P and item Q , which reported pEC50 is smaller? Output the label that corresponds to your choice.
P

A. CS(=O)(=O)Nc1cc(Cl)cc(NC(=O)c2cc3c(C(F)(F)F)cccn3c2)c1
B. CS(=O)(=O)Nc1cc(Cl)cc(NC(=O)c2cc3ccncc3s2)c1
Would you let me know which has the greater pEC50 value, A or B ? Output the label that corresponds to your choice.
A
(A: 5.71, B: 5.14)

P. CS(=O)(=O)Nc1cc(Cl)cc(NC(=O)c2cnn(-c3ncccc3OCc3c[nH]cn3)c2)c1
Q. CS(=O)(=O)Nc1cc(Cl)cc(NC(=O)c2cnn(-c3ccc(N4CCOCC4=O)cn3)c2)c1
Would you let me know which has the greater pEC50 value, P or Q ? Output the label that corresponds to your choice.
P
